Quick reference: solubility kinetic of the listed items.
conditions: buffer; pH 7.4; 200.0 µM

CC1CCN(C(=O)COC(=O)c2ccc3c(c2)OCCO3)CC1 :: > 47.9 µg/mL
O=C(Nc1ccccc1C(=O)Nc1ccccn1)c1cc(F)c(F)cc1Cl :: < 0.3 µg/mL

Please find the next compound below.
Which solubility kinetic value is on record for "O=C(CN1C(=O)NC2(CCCC2)C1=O)NCc1ccco1" ?
> 43.7 µg/mL

====

conditions: buffer; pH 7.4; 200.0 µM
measurement label: solubility kinetic

Here's what some known entries look like.
O=C(CNC(=O)C1CCCC1)Nc1ccccc1Br :: > 48.8 µg/mL
Nc1nnc(SCC(=O)NC2CCCC2)s1 :: > 38.8 µg/mL
COc1cccc(OC(=O)N2CCOCC2)c1 :: > 35.6 µg/mL
Cc1ccc(CNS(=O)(=O)c2ccc(F)c(F)c2)n1C :: > 45 µg/mL

Please find the next molecule below.
Which solubility kinetic value is on record for COc1cc(C2NC(=O)CCC2[N+](=O)[O-])cc(OC)c1OC (stereo not given) ?
> 46.5 µg/mL

====

conditions: buffer; pH 7.4; 200.0 µM
measurement label: solubility kinetic

Here's what some known entries look like.
CCN(CC)c1ccc(Nc2nc(-c3cccnc3)cs2)cc1 :: < 0.2 µg/mL
O=C(CC1Sc2ccccc2NC1=O)NCc1ccc(Cl)cc1 (configuration not stated) :: < 0.4 µg/mL
CCCN1C(=O)C2(SC(NC(C)=O)=NN2C(C)=O)c2cc(C)cc(C)c21 (configuration not stated) :: > 56.2 µg/mL
Cc1cc([N+](=O)[O-])ccc1NC(=O)CCC(=O)N1CCCCCC1 :: > 50 µg/mL
Cc1nn(CC(=O)N2CCC(C)CC2)c(=O)c2cccn12 :: > 43.3 µg/mL
c1ccc(CCOn2ccnc2)cc1 :: > 28.2 µg/mL
O=C(CN1CCN(c2ccccc2)CC1)NCc1ccc(F)cc1 :: > 49.1 µg/mL
CC(C)(C)OC(=O)NCCC(=O)N/N=C/c1ccc2ncccc2c1 :: > 51.4 µg/mL

Which solubility kinetic value is on record for "CCOCCCNCC(=O)Nc1cc(S(=O)(=O)N2CCOCC2)ccc1N1CCOCC1" ?
> 70.6 µg/mL

Which solubility kinetic value is on record for Cc1ccsc1CNCC(O)c1ccccc1.Cl (configuration not stated) ?
> 42.6 µg/mL

Which solubility kinetic value is on record for Cc1ccc(C(C)NC(=O)Cc2cccs2)cc1C (configuration not stated) ?
> 41 µg/mL

Which solubility kinetic value is on record for "O=C(O)CNS(=O)(=O)c1ccc2c3c(cccc13)C(=O)N2" ?
> 45.9 µg/mL

====

conditions: buffer; pH 7.4; 200.0 µM
measurement label: solubility kinetic

Cc1cc(=O)cc(C)n1-c1ccc(F)cc1F :: > 35.3 µg/mL

Which solubility kinetic value is on record for "COc1ccc(CCC(=O)NCc2cn3ccccc3n2)cc1" ?
> 46.4 µg/mL

Which solubility kinetic value is on record for CC(C)C1Cc2[nH]c(=O)c(C#N)cc2CO1 (stereo not given) ?
> 32.7 µg/mL

Which solubility kinetic value is on record for CC1=C(C)CC(C(=O)NCc2ccccc2F)C(C(=O)O)C1 (stereo not given) ?
> 45.8 µg/mL

Which solubility kinetic value is on record for O=C(NCCS(=O)(=O)NCC1CCCO1)c1ccccc1 (stereo not given) ?
> 46.9 µg/mL

Which solubility kinetic value is on record for "CN(C(=O)CSc1cccc[n+]1[O-])C1CCCCC1" ?
> 42.1 µg/mL

====

conditions: buffer; pH 7.4; 200.0 µM
Quick reference: solubility kinetic of the listed items.

Here's what some known entries look like.
COc1ccc(Cl)cc1NS(=O)(=O)c1cccc(C(=O)NC2CC2)c1 :: > 57.1 µg/mL
CCn1c(SCC(=O)Nc2nccc(C)n2)nc2ccccc21 :: > 49.1 µg/mL
CN(C)c1ccc(NC(=O)c2ccc3nc[nH]c3c2)cc1 :: > 42 µg/mL
COc1ccc(-c2nc(C(=O)O)cs2)cc1OC :: > 39.8 µg/mL
N#CC1(NC(=O)Cn2cc(C(F)(F)F)ccc2=O)CCCC1 :: > 47 µg/mL
Cc1cccn(Cc2c(F)cccc2Cl)c1=O :: > 37.8 µg/mL

Please find the next molecule below.
Which solubility kinetic value is on record for "Cc1ccc(NC(=O)C(=O)NCCCN2CCOCC2)c(C)c1" ?
> 47.9 µg/mL

====

conditions: buffer; pH 7.4; 200.0 µM
Quick reference: solubility kinetic of the listed items.

Here's what some known entries look like.
CSCCC(NS(=O)(=O)/C=C/c1ccccc1)C(=O)O (stereo not drawn) :: > 47.3 µg/mL
Cc1ccc(OCCn2c(=O)oc3ccc(C)cc32)cc1 :: < 0.6 µg/mL
Cn1c(=O)[nH]c2ncccc21 :: > 22.4 µg/mL
O=C(NC(=O)c1ccccc1)Nc1ccc(-c2cnco2)cc1 :: < 0.2 µg/mL
CC1CC(C)CN(c2ncnc3c2cnn3C)C1 (stereo not drawn) :: > 36.8 µg/mL

Which solubility kinetic value is on record for NC1CCN(c2c(F)cc3c(=O)c(C(=O)O)cn(C4CC4)c3c2Cl)C1 (stereo not drawn) ?
> 54.9 µg/mL

Which solubility kinetic value is on record for "COc1ccc(CC(=O)NCC(C)(C)N2CCOCC2)cc1" ?
> 46 µg/mL

Which solubility kinetic value is on record for "COc1ccc(S(=O)(=O)/C(C#N)=C/Nc2cccc(F)c2)cc1" ?
< 0.4 µg/mL

Which solubility kinetic value is on record for "CN(C)C(=O)CN1c2cccc3cccc(c23)S1(=O)=O" ?
> 43.6 µg/mL

Which solubility kinetic value is on record for O=C(O)CC(NC(=O)c1ccco1)c1ccco1 (stereo not drawn) ?
> 37.4 µg/mL

Which solubility kinetic value is on record for CC1(c2ccc3ccccc3c2)NC(=O)N(CC(=O)O)C1=O (stereo not drawn) ?
> 44.7 µg/mL

Which solubility kinetic value is on record for "Cl.O=C(NCc1ccccc1)N1CCNCC1" ?
> 38.4 µg/mL

Which solubility kinetic value is on record for "C/C(=N/NC(=O)CNC(=O)c1cccs1)c1ccco1" ?
> 43.7 µg/mL

====

conditions: buffer; pH 7.4; 200.0 µM
measurement label: solubility kinetic

Nc1ccc(S(=O)(=O)N2CCc3ccccc32)cc1 :: > 41.2 µg/mL
COc1ccc(NC(=O)Nc2cccnc2)cc1 :: > 36.5 µg/mL
O=c1[nH]c(=S)n(C2CC2)c(O)c1C=NCC1CCCO1 (stereo not given) :: > 44.3 µg/mL
Cc1c(C)n(CCc2ccccc2)c2ncnc(NCCCN(C)C)c12 :: > 52.7 µg/mL
S=c1[nH]nc(CSCCOc2ccc(Cl)cc2Cl)o1 :: > 50.6 µg/mL
C[C@H](NC(=O)c1ccccc1)C(=O)N1CCN(c2ccccc2)CC1 :: > 50.6 µg/mL

Which solubility kinetic value is on record for "O=C(NCC1CCCCC1)c1ccccc1[N+](=O)[O-]" ?
> 39.3 µg/mL

Which solubility kinetic value is on record for "O=C(/C=C/c1ccco1)NCc1ccc2c(c1)OCO2" ?
> 40.7 µg/mL

Which solubility kinetic value is on record for "C=C(c1ccccc1O)n1ccnc1" ?
> 27.9 µg/mL

Which solubility kinetic value is on record for "CN(C)CCCNC(=O)c1cc(C(=O)c2ccccc2)c[nH]1" ?
> 44.9 µg/mL

Which solubility kinetic value is on record for "O=C(Nc1ccccc1F)C(c1ccccc1)c1ccccc1" ?
< 0.7 µg/mL

Which solubility kinetic value is on record for Cc1cccc(OCc2nnc(SC(C)C(=O)Nc3ccc(N4CCOCC4)cc3)o2)c1 (stereo not given) ?
> 68.2 µg/mL

Which solubility kinetic value is on record for "O=C1c2ccccc2C(=O)N1Cc1cc(Cl)c(O)c([N+](=O)[O-])c1" ?
> 49.9 µg/mL

Which solubility kinetic value is on record for "O=C(COc1ccccc1Cl)N1CCNC1=O" ?
> 38.2 µg/mL

Which solubility kinetic value is on record for "Cl.O[C@@H](c1cc(C(F)(F)F)nc2c(C(F)(F)F)cccc12)[C@H]1CCCCN1" ?
> 62.2 µg/mL

Which solubility kinetic value is on record for "CN(C(=O)CSc1nnc(C2CC2)n1C1CC1)C1(C#N)CCCCC1" ?
> 53.9 µg/mL

====

conditions: buffer; pH 7.4; 200.0 µM
Quick reference: solubility kinetic of the listed items.

CCCN1C(=O)N(c2cccc(C)c2)C(C)(O)CC1(C)C (stereo not given) :: > 43.6 µg/mL
COc1ccc(CC(=O)Nc2cc(S(=O)(=O)N3CCOCC3)ccc2N2CCCC2)cc1OC :: > 73.4 µg/mL
Cc1ccc(CONC(=O)c2ccccc2Cl)cc1 :: > 41.4 µg/mL
CC1CCCCN1C(=O)c1cc(S(=O)(=O)N2CCOCC2)ccc1Cl (stereo not given) :: > 58 µg/mL

Please find the next compound below.
Which solubility kinetic value is on record for "Cn1c(CCC(=O)O)nc2cc(S(=O)(=O)N3CCCC3)ccc21" ?
> 50.6 µg/mL

Provenance of the data: PubChem BioAssay AID1996
